Below, each entry is listed alongside its reported percentage of IFNG+ NK cells.
Tested on: NKG2A+/NKG2C− NK cells
Procedure details: NK cell activation markers in NKG2A+/NKG2C- NK cells incubated with peptide and K562 expressing HLA-E (inhibition)
Assay type: cell-based, human
Experimental parameters: NKG2A+/NKG2C- NK cells, K562/HLA-E, Trial 2
Where no end group is shown, it is not given here.
Report the value in % with no unit label.

Example entries begin here.
| Sequence string | Quantity unit | percentage of IFNG+ NK cells |
| --- | --- | --- |
| VLPHRTQFL [CMV1, novel CMV-derived peptide UL120 72-80, Merlin] | % | 1.08 |
| TLPKRGLFL [human2, TLPKRGLFL] | % | 2.85 |
| ILTDRSLWL [human4, peptide FBXO41 670-678 derived from the human proteome] | % | 8.81 |
| VMAPRTLIL [VMAPRTLIL (LIL), positive control peptide, reference compound] | % | 0.59 |

The value of percentage of IFNG+ NK cells recorded for VMAPQSLLL [VMAPQSLLL (PQS), negative control peptide, reference compound] when tested on NKG2A+/NKG2C− NK cells reads 27.3

The value of percentage of IFNG+ NK cells recorded for QMPSRSLLF [human1, QMPSRSLLF] when tested on NKG2A+/NKG2C− NK cells reads 9.68

The value of percentage of IFNG+ NK cells recorded for TAPARTMFL [human13, TAPARTMFL] when tested on NKG2A+/NKG2C− NK cells reads 30.8

The value of percentage of IFNG+ NK cells recorded for FLPNRSLLF [human8, peptide SLC52A3 354-362 derived from the human proteome] when tested on NKG2A+/NKG2C− NK cells reads 10.5

The value of percentage of IFNG+ NK cells recorded for RMPPRSVLL [human12] when tested on NKG2A+/NKG2C− NK cells reads 0.32

The value of percentage of IFNG+ NK cells recorded for VNPGRSLFL [human5, VNPGRSLFL] when tested on NKG2A+/NKG2C− NK cells reads 28.8

The value of percentage of IFNG+ NK cells recorded for TLPERTLYL [human7, peptide ECEL1 269-277 derived from the human proteome] when tested on NKG2A+/NKG2C− NK cells reads 0.21

The value of percentage of IFNG+ NK cells recorded for VMPPRTLLL [human15, peptide HLA-A 3-11 derived from the human proteome] when tested on NKG2A+/NKG2C− NK cells reads 0.3

The value of percentage of IFNG+ NK cells recorded for NMPARTVLF [human14, peptide MTREX 490-498 derived from the human proteome] when tested on NKG2A+/NKG2C− NK cells reads 0.79

The value of percentage of IFNG+ NK cells recorded for TGPWRSLWI [human3, TGPWRSLWI] when tested on NKG2A+/NKG2C− NK cells reads 26.8

The value of percentage of IFNG+ NK cells recorded for VMPGRTLCF [human11, peptide TACR3 226-234 derived from the human proteome] when tested on NKG2A+/NKG2C− NK cells reads 0.53
